Catalogue of molecules with associated relative growth
Tested on: Escherichia coli K-12 BW25113
Measurement Protocol: relative growth (OD600 normalised to plate interquartile mean) (fraction); higher = less growth inhibition, active = 0.2 or less
Measurement Parameters: 50 µM; LB; incubation time: overnight (16-24 h)
Out of some 39,000 compounds screened, about 220 (0.56%) showed activity. Shown is part of a subset that was picked to be rich in actives.
Assay Endpoint: relative growth

Smiles Code | Assay Endpoint | Reading
C[C@H]1CN([C@@H](C)CO)C(=O)Cc2cc(NC(=O)NC3CCCCC3)ccc2O[C@H]1CN(C)Cc1ccc(Oc2ccccc2)cc1 | relative growth | 1.03
COCCOC(=O)N1C(=O)[C@@]2(c3cc(C#CCCO)ccc31)[C@H](C(=O)Nc1nc3ccccc3s1)[C@H]1C(=O)O[C@H](c3ccccc3)[C@H](c3ccccc3)N1[C@@H]2c1ccc(O)cc1 | relative growth | 1.02
CC(C)NC(=O)Nc1ccc2c(c1)C(=O)N([C@H](C)CO)C[C@H](C)[C@@H](CN(C)C(=O)C1CCCCC1)OCCCC[C@@H](C)O2 | relative growth | 0.984
CCCN(C)C[C@@H]1OCCCC[C@H](C)Oc2ccc(NC(=O)CCC(F)(F)F)cc2C(=O)N([C@@H](C)CO)C[C@@H]1C | relative growth | 1
O=C(O)[C@H]1O[C@@H](Oc2c(-c3ccc(O)cc3)oc3cc(O)cc(O)c3c2=O)[C@H](O)[C@@H](O)[C@@H]1O | relative growth | 1.01
O=C(C[C@H]1C[C@H]2c3cc(NC(=O)Cc4ccncc4)ccc3O[C@H]2[C@H](CO)O1)NCCN1CCCCC1 | relative growth | 1.02

---

System: Escherichia coli K-12 BW25113
Measurement Protocol: relative growth (OD600 normalised to plate interquartile mean) (fraction); higher = less growth inhibition, active = 0.2 or less
Measurement Parameters: 50 µM; LB; incubation time: overnight (16-24 h)
About 220 (0.56%) of roughly 39,000 compounds showed activity. Many of the other results were omitted from the sample, so actives are more common in it than they were.
Parameter: relative growth. Scope: all listed entries.
Assay Endpoint: relative growth

Smiles Code | Reading
OC[C@@H](O)[C@H]1O[C@H](c2ccccc2)OC[C@@H]1O | 1.05
CCN1CCN(c2ccc(Nc3cc(N(C)C(=O)Nc4c(Cl)c(OC)cc(OC)c4Cl)ncn3)cc2)CC1 | 0.975
Cc1noc(C)c1S(=O)(=O)Nc1ccc2c(c1)C(=O)N([C@H](C)CO)C[C@@H](C)[C@H](CN(C)S(=O)(=O)c1ccc(Cl)cc1)O2 | 1
Cn1c(=O)[nH]c(=O)c2c1nc(N1CCN(CC(N)=O)CC1)n2C/C=C/c1ccccc1 | 0.988
CC(=O)N1C[C@@H]2C(=O)N(C)C3(CCN(S(=O)(=O)Cc4ccccc4)CC3)[C@H]2C1 | 0.958
C[C@H]1CN([C@@H](C)CO)C(=O)Cc2cc(NC(=O)C3CCCCC3)ccc2O[C@@H]1CN(C)S(C)(=O)=O | 0.992
C[C@@H]1CN([C@H](C)CO)C(=O)c2cccc(NS(=O)(=O)c3ccc(F)cc3)c2O[C@@H]1CN(C)S(=O)(=O)c1cn(C)cn1 | 0.99
COC(=O)c1c(C)cc(OC(=O)c2c(C)cc(O)c(C=O)c2O)c(C)c1O | 0.867

---

System: Escherichia coli K-12 BW25113
Measurement Protocol: relative growth (OD600 normalised to plate interquartile mean) (fraction); higher = less growth inhibition, active = 0.2 or less
Measurement Parameters: 50 µM; LB; incubation time: overnight (16-24 h)
Out of some 39,000 compounds screened, about 220 (0.56%) showed activity. Only a selection was taken, and actives are over-represented in it overall.
Quick list: relative growth per entry.

Compound | relative growth
CC(CCC(=O)O)C1CCC2C3C(O)CC4CC(O)CCC4(C)C3CCC12C (configuration not stated) | 1.01
C[C@H]1CN([C@@H](C)CO)C(=O)c2cccc(NS(C)(=O)=O)c2O[C@@H]1CN(C)Cc1ccc(C(F)(F)F)cc1 | 1.01
COc1ccc(S(=O)(=O)N(C)C[C@@H]2Oc3ncc(C#Cc4ccc(OC)c(OC)c4)cc3C(=O)N([C@H](C)CO)C[C@@H]2C)cc1 | 0.91
CS(=O)(=O)NC[C@@H]1OC[C@@H]2CCN(C(=O)c3ccnnc3)C[C@@H]21 | 1.02
CCCCCCCCCCCCCCCCCCCC(=O)N[C@H]1CC[C@@]2(C)[C@@H](C1)C[C@@H](O)[C@@H]1[C@@H]2C[C@H](O)[C@]2(C)[C@@H]([C@H](C)CCC(=O)O)CC[C@@H]12 | 1.02
CC(C)[C@@H](CC[C@@H](C)[C@H]1CC[C@H]2[C@@H]3[C@H](O)C[C@H]4C[C@@H](NCCCNCCCCN)CC[C@]4(C)[C@H]3CC[C@]12C)OS(=O)(=O)O | 0.137
C[C@H](CO)N1C[C@H](C)[C@H](CN(C)C(=O)Nc2ccc(F)cc2)OCCCC[C@H](C)Oc2ccc(NC(=O)C3CCOCC3)cc2C1=O | 0.981

---

System: Escherichia coli K-12 BW25113
Measurement Protocol: relative growth (OD600 normalised to plate interquartile mean) (fraction); higher = less growth inhibition, active = 0.2 or less
Measurement Parameters: 50 µM; LB; incubation time: overnight (16-24 h)
About 220 (0.56%) of roughly 39,000 compounds showed activity. Only a selection was taken, and actives are over-represented in it overall.

Compound | relative growth
CCCCCc1ccccn1 | 0.974
CCCCNc1ccccc1 | 0.996
Cc1noc(C)c1NC(=O)Nc1ccc2c(c1)C(=O)N([C@H](C)CO)C[C@H](C)[C@@H](CN(C)C(=O)Nc1ccc(F)cc1)OCCCC[C@@H](C)O2 | 0.985
Cc1cccc(NC(=O)Nc2ccc3c(c2)C(=O)N(C)[C@@H]2CC[C@@H](CC(=O)NCc4ccccc4Cl)O[C@@H]2CO3)c1 | 0.998
CCCCCCCCCCCCCCCC[N+](C)(C)Cc1ccccc1.[Cl-] | 0.0933
CC[N+](C)(CC)Cc1ccccc1 | 0.993
CCCCC(O)c1ccccc1 (stereo unspecified) | 0.973
CCCCCCCCCCCCCCCC[N+](C)(C)CCN(Cc1ccc(OC)cc1)c1ncccn1 | 0.555
CCCC[C@@H](O)c1ccccc1 | 0.992
CCCCCCCCCCCCC[N+](C)(C)Cc1ccccc1.O.[Cl-] | 0.0544
CCCCCCCCCCCCC[N+](C)(C)Cc1ccccc1 | 0.0319

---

Test system: Escherichia coli K-12 BW25113;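 note: Wild-type cells incubated without shaking, value is the mean of two biological replicates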
Measurement Protocol: relative growth (OD600 normalised to plate interquartile mean) (fraction); higher = less growth inhibition, active = 0.2 or less
Measurement Parameters: 50 µM; LB; incubation time: overnight (16-24 h)
The whole screen tested about 39,000 compounds, of which about 220 (0.56%) showed activity. The list comes from a sample in which actives are over-represented; it also holds close analogues and randomly drawn compounds.

Compound | relative growth
CNC1C(O)C(NC)C2OC3(O)C(=O)CC(C)OC3OC2C1O.Cl.Cl (stereo not drawn) | 0.048
C[C@@H]1CN([C@@H](C)CO)C(=O)c2cc(NC(=O)Nc3ccc(F)cc3)ccc2O[C@@H](C)CCCCO[C@@H]1CN(C)Cc1ccncc1 | 0.93
NC1(CC(=O)O)CCN(Cc2ccccc2)CC1 | 0.999
CCCNC(=O)N1C[C@H](C)[C@H](OC)CN(C)C(=O)c2ccc(NS(=O)(=O)CC(F)(F)F)cc2OC[C@H]1C | 0.974
C[C@@H]1CCCCO[C@H](CN(C)Cc2ccc3c(c2)OCO3)[C@H](C)CN([C@@H](C)CO)C(=O)c2cc(NC(=O)NC3CCCCC3)ccc2O1 | 1.01
Cc1n[nH]c(=S)n1N | 0.968
CC1(C)SC2C(NC(=O)C(N)c3ccc(O)cc3)C(=O)N2C1C(=O)O (stereo not drawn) | 1.1
O=C(C[C@@H]1CC[C@@H](NS(=O)(=O)c2ccc(F)cc2)[C@@H](CO)O1)N1CCC(Cc2ccccc2)CC1 | 0.987
Clc1ccc2sc(Sc3ccccc3)nc2c1 | 0.985
C[C@@H]1CN([C@@H](C)CO)C(=O)c2cc(Br)cnc2O[C@H]1CN(C)C(=O)c1ccc2c(c1)OCO2 | 0.994
C[C@H]1CN([C@@H](C)CO)C(=O)c2cc(NC(=O)C3CC3)ccc2O[C@@H]1CN(C)S(=O)(=O)c1cn(C)cn1 | 0.941
O=C(C[C@H]1C[C@H]2c3cc(NS(=O)(=O)c4ccc(F)cc4)ccc3O[C@H]2[C@H](CO)O1)NCc1ccccn1 | 0.998
C[C@H](CO)N1C[C@H](C)[C@H](CN(C)Cc2ccc(C(=O)O)cc2)Oc2ccc(NC(=O)CCCN(C)C)cc2C1=O | 1.01
C[C@H]1CCCCO[C@H](CN(C)Cc2ccncc2)[C@@H](C)CN([C@@H](C)CO)C(=O)c2cc(NC(=O)C3CCCCC3)ccc2O1 | 0.956
C[C@H](CO)N1C[C@H](C)[C@H](CN(C)CC2CC2)Oc2ccc(NS(=O)(=O)c3cn(C)cn3)cc2CC1=O | 0.99
CC1(C)S[C@@H]2[C@H](NC(=O)[C@H](N)c3ccccc3)C(=O)N2[C@H]1C(=O)OCOC(=O)[C@@H]1N2C(=O)C[C@H]2S(=O)(=O)C1(C)C | 0.107
O=C(C[C@H]1C=C[C@H](NS(=O)(=O)c2ccccc2F)[C@@H](CO)O1)NCCCN1CCOCC1 | 0.993
C[C@@H]1CN([C@H](C)CO)C(=O)CCCn2cc(nn2)CO[C@H]1CN(C)C(=O)C1CC1 | 1.02
Cn1nnnc1SCC1=C(C(=O)[O-])N2C(=O)C(NC(=O)C(OC=O)c3ccccc3)C2SC1.[Na+] (stereo not drawn) | 0.365
C[C@H]1CN([C@@H](C)CO)S(=O)(=O)c2ccc(C3=CCCC3)cc2O[C@@H]1CN(C)S(=O)(=O)c1ccc(F)cc1 | 1.02
CNC[C@H]1Oc2ccc(NC(=O)CCN3CCOCC3)cc2CC(=O)N([C@@H](C)CO)C[C@@H]1C | 0.977
C[C@H]1CN([C@@H](C)CO)C(=O)c2c(c3ccccc3n2C)-c2ccccc2CO[C@@H]1CN(C)Cc1cccc(F)c1 | 0.962
O=c1[nH]cc(Nc2ccccc2)c(=O)[nH]1 | 1.01
O=C(C[C@H]1C[C@@H]2c3cc(NC(=O)Cc4ccncc4)ccc3O[C@@H]2[C@@H](CO)O1)NCCN1CCCCC1 | 0.983
NCc1ccccc1CC(=O)NC1C(=O)N2C(C(=O)O)=C(CSc3nnnn3CC(=O)O)CSC12 (stereo not drawn) | 0.0453
C[C@@H]1CN([C@@H](C)CO)C(=O)c2cc(-c3cccc(C(=O)N(C)C)c3)cnc2O[C@H]1CN(C)S(=O)(=O)c1ccccc1 | 1.01
CCOC(=O)OC(C)OC(=O)C1N2C(=O)C(NC(=O)C(N)c3ccccc3)C2SC1(C)C.Cl (stereo not drawn) | 0.0511
C[C@H]1[C@H](NC(=O)/C(=N\OC(C)(C)C(=O)O)c2csc(N)n2)C(=O)N1S(=O)(=O)O | 0.0312
C[C@@H]1CN([C@H](C)CO)C(=O)c2cccc(NC(=O)Nc3cccc4ccccc34)c2O[C@H]1CN(C)S(=O)(=O)c1ccccc1 | 0.987
O=C([O-])C1=C(CSc2nnnn2CS(=O)(=O)[O-])CSC2C(NC(=O)C(O)c3ccccc3)C(=O)N12.[Na+].[Na+] (stereo not drawn) | 0.044
CC1(C)SC2C(NC(=O)C(N)c3ccccc3)C(=O)N2C1C(=O)[O-].[Na+] (stereo not drawn) | 1.06
C[C@H]1CN([C@@H](C)CO)C(=O)c2cc(C#CC3(O)CCCC3)cnc2O[C@H]1CN(C)C(=O)CN(C)C | 0.988
C[C@@H]1CN([C@H](C)CO)C(=O)c2cc(C#CCN(C)C)cnc2O[C@H]1CN(C)C(=O)CCN1CCCCC1 | 0.983
